System: CCRF-CEM leukemia
Assay: NCI-60 one-dose screen, 48 h
Conditions: 10 µM unless noted
The panel holds about 83,000 compounds, 20% with a hit somewhere; the sample as a whole holds those more often. Active and inactive are the calls of the source. Rule for the calls: active = growth percent below 10; inactive = the rest.
Outcome codes: active, inactive

| Molecule | Assigned category |
| --- | --- |
| O=C(NCCCNc1cc(-c2cn(-c3ccccc3)nc2-c2cccc(O)c2)ccn1)c1ccccc1 | inactive |
| Cc1cc(NCc2cc(Nc3ccnc4cc(Cl)ccc34)ccc2F)nc(N2CCCC2)n1 | active |
| COc1ccc(NC(=O)CSc2nc(C)c(C(C)=O)n2-c2ccc(Cl)cc2)cc1 | inactive |
| CCN(CC)S(=O)(=O)c1cccc(-c2ccc3c(NC(=O)C4CC4)n[nH]c3c2)c1 | inactive |
| c1coc(-c2c3ccc(=[N+]4CCCCC4)cc-3oc3cc(N4CCCCC4)ccc23)c1 | active |
| CCCCCCCCCCCC(c1ccccc1)[N+](C)(C)C (stereo not drawn) | inactive |
| O=c1ssc(Cl)c1-c1ccccc1 | inactive |
| O=C1c2cccc(NCCN=Cc3cc([N+](=O)[O-])ccc3O)c2C(=O)c2c(NCCN=Cc3cc([N+](=O)[O-])ccc3O)cccc21 | inactive |
| CC1=NOC(=O)/C1=C\c1ccc(O)cc1 | inactive |
| COc1ccc2cc(-c3cc(OC)c(OC)c(OC)c3)c(=O)oc2c1 | inactive |
| COc1ccc(-c2[nH]c(=S)n(C(CC3(C)NCC(=O)N3n3c(-c4ccccc4)cc(C)nc3=S)c3ccc(OC)cc3)c(=O)c2Br)cc1 (stereo not drawn) | inactive |
| O=S(=O)(O)c1ccc(N/N=C/c2ccccc2Cl)cc1 | inactive |
| CCN(CC)Cc1cccc(C(=O)OC)c1 | inactive |
| COc1cc(C2CC(=O)Nc3c2c(C)nn3-c2nc3ccccc3[nH]2)cc2c1OCC(=O)N2 (stereo not drawn) | inactive |
| CC(=O)N1C(=S)NC(=O)C1Cn1c(-c2ccccc2)nc2ccccc21 (stereo not drawn) | inactive |
| Cc1ccc(S(=O)(=O)Oc2cc(OS(=O)(=O)c3ccc(C)cc3)cc(OS(=O)(=O)c3ccc(C)cc3)c2)cc1 | inactive |
| O=[N+]([O-])c1ccc(Sc2cccc[n+]2[O-])c2nonc12 | active |
| Cn1cc2c(c1)-c1nc(Nc3ccccc3)ncc1CC2 | inactive |
| Cc1nn(-c2ccccc2)c2nc3c(c(-c4ccc(Cl)cc4)c12)CNC1(CCSCC1)N3 | inactive |
| COc1cc(C2CC(=O)Nc3c2c(C)nn3-c2nc3ccccc3[nH]2)c(OC)c(OC)c1OC (stereo not drawn) | inactive |
| O=C(/C=C/c1c(Cl)nc2sccn12)c1ccc(F)c(F)c1 | inactive |
| CCN(CCNc1ccc(C)c2sc3ccccc3c(=O)c12)CC(C)(C)O | inactive |
| CCCCCCCCCCCCCCCCCCOc1ccc(CC(=O)OCC[N+]2(C)CCCC2)cc1 | inactive |

----------
Test system: KM12 colon
Experiment: NCI-60 one-dose screen, 48 h
Settings: 10 µM unless noted
Compounds without any hit were thinned out: in the full panel of roughly 83,000, 20% have a hit. Active and inactive are the calls of the source. The calls were made as follows: active = growth percent below 10; inactive = the rest.
Outcome codes: active, inactive

| Compound | Assigned category |
| --- | --- |
| O=C(CCCCCCSc1nc(-c2ccccc2)cc(-c2ccc(Cl)cc2)n1)NO | inactive |
| O=C(Cc1ccc(F)c(F)c1)Nc1cc(C2(C(F)(F)F)CC2)nn1Cc1ccccc1 | active |
| COc1cc(C2CC(=O)Nc3c2c(C)nn3-c2nc3ccccc3[nH]2)cc2c1OCC(=O)N2 (stereo unspecified) | inactive |
| CN(C)c1ccc(/C=C/C(=O)c2cccc(Nc3nc(Nc4ccccc4)nc(Nc4ccccc4)n3)c2)cc1 | inactive |
| COc1ccc(C2CC(c3cccc(OC)c3)=NN2C(=O)c2cc(OC)c(OC)c(OC)c2)cc1 (stereo unspecified) | inactive |
| CC/C=C\CCC/C=C1/C(=O)C=C[C@@H]1C/C=C\CCCC(=O)O | inactive |
| Nc1cc2c3c(cccc3c1)C(=O)N(CCN1CCCC1)C2=O | inactive |
| O=S(=O)(O)c1ccc(N/N=C/c2ccccc2Cl)cc1 | inactive |
| COc1cccc(-c2nn(-c3ccccc3)cc2-c2ccnc(NCCCNC(=O)Nc3ccc(Cl)c(Cl)c3)c2)c1 | active |
| O=C(c1ccccc1)N1N=C(c2ccccc2)CC1c1nnc2n(Cc3ccccc3)c(=O)c3c4c(sc3n12)CCCC4 (stereo unspecified) | inactive |
| O=C(CC(SCc1ccccc1)c1ccccc1)c1ccccc1 (stereo unspecified) | inactive |
| CS(=O)c1cccc(-c2ccc3nc(N)n(-c4ccc(C(F)(F)F)cc4)c(=O)c3c2)c1 (stereo unspecified) | inactive |
| CCN(CC)Cc1cccc(C(=O)OC)c1 | inactive |
| Oc1ccc(CN2CCC(N3CCOCC3)CC2)c2cccnc12 | inactive |
| Nc1ccc2c(c1)c(N)nn2C(=O)Nc1ccc(Cc2ccccc2)cc1 | inactive |
| N=C1C(c2nc(-c3ccc(Br)cc3)cs2)=C(O)CN1CC1CCCO1 (stereo unspecified) | inactive |
| Cn1cc2c(c1)-c1nc(Nc3ccccc3)ncc1CC2 | inactive |
| C=CCn1c(C)nc2cc(Nc3nc(N4CCCC4)nc4ccccc34)ccc21 | inactive |
| COc1cc(C2CC(=O)Nc3c2c(C)nn3-c2nc3ccccc3[nH]2)c(OC)c(OC)c1OC (stereo unspecified) | inactive |
| COc1cc(N=Nc2ccc(N)cc2)c(OC)cc1N=Nc1ccccc1.[Cl][Zn][Cl] | inactive |
| CCCCCCCCCCCCCCCCCCOc1ccc(CC(=O)OCC[N+]2(C)CCCC2)cc1 | inactive |
| CCOC(=O)c1c2ncccc2n2c(=O)n(-c3ccccc3C)nnc12 | inactive |
| CCN(CCNc1ccc(C)c2sc3ccccc3c(=O)c12)CC(C)(C)O | inactive |
| COc1ccc(-c2nc(SCCC(C)C)nc(N/N=C\c3cccc([N+](=O)[O-])c3)c2C#N)cc1 | inactive |
| COc1ccc(NC(=O)c2nc(-c3cc(OC)c(OC)c(OC)c3)n(-c3cccc4ccccc34)n2)cc1OC | inactive |
| COc1ccc2c(c1)O/C(=C\c1cccc(OCC(=O)Nc3nc4ccccc4s3)c1)C2=O | inactive |
| CCCCN(CCCC)CC(C)(C)C(O)c1ccc(OC)c2ccccc12 (stereo unspecified) | inactive |
| CCC1(C2CCCC2)NC(=O)NC1=O (stereo unspecified) | inactive |
| Cc1ccc(-n2c(-c3ccccc3)c(-c3ccccc3)c3c(SCC(=O)n4[nH]c(N)cc4=O)ncnc32)cc1 | inactive |
| COc1ccc(NC(=O)CSc2nc(C)c(C(C)=O)n2-c2ccc(Cl)cc2)cc1 | inactive |
| COC(=O)c1c2c(c[n+]([O-])c1C)C(=O)C=CC2=O | inactive |

Taken from PubChem BioAssay (NCI).
